Cited source: PubChem BioAssay AID741

experiment: reversers of MRP drug resistance, dose response, cell-based (AID 741); conditions: MRP-overexpressing cells, viability with/without cytotoxic drug; measured here: viability series, compound alone, at 10 µM, stronger effect = lower value
Results filed as inconclusive are left out.
Reported viability values for a set of molecules
readout_label: viability (%)

[[record]]
molecule = "Cc1ccc(N2C(N)=C(C#N)C(c3cccnc3)C3=C2CCCC3=O)cc1 (stereo unspecified)"
result = 62.7

[[record]]
molecule = "CCn1c(N)c(C(=O)N2CCOCC2)sc1=S"
result = 101

[[record]]
molecule = "O=C(NCc1ccccn1)c1cn(CCc2ccccc2)nn1"
result = 97.1

[[record]]
molecule = "CC(=O)Oc1cccc2c1C(=O)c1c(OC(C)=O)cc(C(=O)O)cc1C2=O"
result = 89.5

[[record]]
molecule = "Cc1nc(N2CCN(C)CC2)c2sc(=S)n(-c3ccccc3)c2n1"
result = 64

[[record]]
molecule = "CCc1cccc2c3c([nH]c12)C(CC)(CC(=O)O)OCC3 (stereo unspecified)"
result = 92.5

[[record]]
molecule = "CCCCC1C(=O)N(c2ccccc2)N(c2ccccc2)C1=O"
result = 101

[[record]]
molecule = "Cc1ccc(N2C(N)=C(C#N)C(c3cccnc3)C3=C2CC(C)(C)CC3=O)cc1 (stereo unspecified)"
result = 57.5

[[record]]
molecule = "Cc1cccc2cc(CN(Cc3nnnn3C3CCCCC3)C3CCCC3)c3nnnn3c12"
result = 74.2

[[record]]
molecule = "Cc1cccc2cc(CN(Cc3nnnn3Cc3ccco3)C3CCCC3)c3nnnn3c12"
result = 51.1

[[record]]
molecule = "Cc1nn(C)c(C)c1NC(=O)CSc1nc(C2CC2)nc2c1cnn2-c1ccccc1"
result = 27.3


====

experiment: reversers of MRP drug resistance, dose response, cell-based (AID 741); conditions: MRP-overexpressing cells, viability with/without cytotoxic drug; measured here: viability series, compound alone, at 10 µM, stronger effect = lower value
Records with an inconclusive call do not appear.
Response field label: string, one of Satisfied (viability strictly below 90%) or Not satisfied.

[[record]]
molecule = "CCCCSc1nnc2n(CCc3ccccc3)c(=O)c3c4c(sc3n12)COC(C)(C)C4"
answer_label = "Satisfied"

[[record]]
molecule = "COc1ccc(C(c2nnnn2C(C)(C)C)N2CCN(c3nc4ccccc4s3)CC2)cc1OC (configuration not stated)"
answer_label = "Satisfied"

[[record]]
molecule = "CCCNc1nc2c(c(=O)n(C)c(=O)n2C)n1Cc1ccc(F)cc1"
answer_label = "Not satisfied"

[[record]]
molecule = "COc1ccccc1Nc1nc(N)nc(CN2CCOCC2)n1"
answer_label = "Not satisfied"

[[record]]
molecule = "O=C1Nc2cc(C(=O)N3CCN(Cc4ccccc4)CC3)ccc2SC1N1CCOCC1 (configuration not stated)"
answer_label = "Satisfied"

[[record]]
molecule = "COc1cc(/C=C/C(=O)CC(=O)/C=C/c2ccc(O)c(OC)c2)ccc1O"
answer_label = "Satisfied"

[[record]]
molecule = "CC(=O)Nc1ccc(S(=O)(=O)NCCC(=O)NCCc2ccc(F)cc2)cc1"
answer_label = "Satisfied"

[[record]]
molecule = "Cc1cccc(Cn2c(NCC(C)O)nc3c2c(=O)n(C)c(=O)n3C)c1 (configuration not stated)"
answer_label = "Not satisfied"

[[record]]
molecule = "CC1(C)CC(=O)C2=C(C1)N(c1ccccc1)C(N)=C(C#N)C2c1ccccc1 (configuration not stated)"
answer_label = "Satisfied"

[[record]]
molecule = "CC(C)(C)C(=O)[C@@H]1[C@@H]2C(=O)N(C3CCCCC3)C(=O)[C@@H]2[C@H]2c3ccccc3C=CN12"
answer_label = "Satisfied"

[[record]]
molecule = "c1ccc2sc(N3CN(CCN4CCOCC4)CN(c4nc5ccccc5s4)C3)nc2c1"
answer_label = "Not satisfied"

[[record]]
molecule = "COC(=O)Nc1ccc(S(=O)(=O)Nc2cccc3ccccc23)cc1"
answer_label = "Satisfied"

[[record]]
molecule = "O=C(COc1ccccc1)N1CCN(c2ncnc3c2cnn3-c2ccccc2)CC1"
answer_label = "Satisfied"

[[record]]
molecule = "O=c1[nH]c2ccc(Br)cc2c(-c2ccccc2)c1N1CCOCC1"
answer_label = "Satisfied"

[[record]]
molecule = "Cc1ccc(CN(C(=O)c2ccco2)C(C(=O)NC2CCCC2)c2ccc(N3CCOCC3)cc2)cc1 (configuration not stated)"
answer_label = "Satisfied"

